# test target: KRAS G12C (GMPPNP-loaded) and cRAF Ras-binding domain (Homo sapiens, UniProt P01116, C118S/C51S/C80L/G12C)
# Construct: truncated version comprising amino acids 1-169
# Sequence (P01116 1-169 isoform P01116-2 G12C/C51S/C80L/C118S): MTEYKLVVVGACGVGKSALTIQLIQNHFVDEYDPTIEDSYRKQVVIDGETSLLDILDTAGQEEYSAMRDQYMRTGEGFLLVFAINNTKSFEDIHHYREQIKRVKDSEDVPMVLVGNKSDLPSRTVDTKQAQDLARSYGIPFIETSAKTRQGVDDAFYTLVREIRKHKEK
# experiment summary: Inhibition of KRAS G12C and cRAF binding (AlphaScreen)
# experimental conditions: KRAS G12C preloaded with GTP analogue GMPPNP, 2 hours preincubation
The compounds listed here are annotated with their IC50.

Examples with their reported IC50 follow.
compound	assay metric	recorded value
C=CC(=O)N1CC[C@@H](N(C)c2nc(OCC34CCCN3CCC4)nc3c(F)c(-c4nc(N)cc5cccc(Cl)c45)ncc23)C1 [Example 69]	IC50	100 to 500 nM
C=CC(=O)N1CC(CN(C)c2nc(OCC34CCCN3CCC4)nc3c2C[C@H](C)[C@@H](c2nc(N)cc(C)c2C(F)(F)F)C3)C1 [Example 109]	IC50	≥ 500 nM
CN(C)C/C=C/C(=O)N1CC[C@@H](N(C)c2nc(OC[C@@]34CCCN3C[C@H](F)C4)nc3c(F)c(-c4nc(N)cc5cccc(Cl)c45)ncc23)C1 [Example 61]	IC50	10 to 100 nM
Cc1cc(N)nc(-c2ncc3c(N(C)CC4CN(C(=O)/C=C/c5nc(C(C)C)no5)C4)nc(OC[C@@]45CCCN4C[C@H](F)C5)nc3c2F)c1C(F)(F)F [Example 51]	IC50	< 10 nM
CO[C@@H]1CCN(C/C=C/C(=O)N2CC[C@@H](N(C)c3nc(OC[C@@]45CCCN4C[C@H](F)C5)nc4c(F)c(-c5cccc(Cl)c5C5CC5)ncc34)C2)C1 [Example 222]	IC50	100 to 500 nM
Cc1cc(N)nc(-c2ncc3c(N(C)CC4CN(C(=O)/C=C/c5nc(C(C)(C)O)no5)C4)nc(OC[C@@]45CCCN4C[C@H](F)C5)nc3c2F)c1C(F)(F)F [Example 97]	IC50	10 to 100 nM

Query compound follows.
Which IC50 value is on record for C=CC(=O)N1CC(CN(C)c2nc(OCC34CCCN3CCC4)nc3c2C[C@H](C)[C@@H](c2nc(N)cc(C)c2C(F)(F)F)C3)C1 (single isomer, unassigned) [Example 50] ?
≥ 500 nM

---

# test target: KRAS G12C (GMPPNP-loaded) and cRAF Ras-binding domain (Homo sapiens, UniProt P01116, C118S/C51S/C80L/G12C)
# Construct: truncated version comprising amino acids 1-169
# experiment summary: Inhibition of KRAS G12C and cRAF binding (AlphaScreen)
# experimental conditions: KRAS G12C preloaded with GTP analogue GMPPNP, 2 hours preincubation
pIC50: −log10 of the molar value.
The compounds listed here are annotated with their pIC50.

Examples with their reported pIC50 follow.
compound	assay metric	recorded value
C=CC(=O)N1CC[C@@H](N(C)c2nc(OC[C@@]34CCCN3C[C@H](F)C4)nc3c(F)c(-c4cc(O)cc(Cl)c4C(F)(F)F)ncc23)C1 [Example 248]	pIC50	> 8.00
CN1CC[C@@H]1/C=C/C(=O)N1CC[C@@H](N(C)c2nc(OC[C@@]34CCCN3C[C@H](F)C4)nc3c(F)c(-c4nc(N)cc5cccc(F)c45)ncc23)C1 (single isomer, unassigned) [Example 7]	pIC50	> 8.00
C=CC(=O)N1CC[C@@H](N(C)c2nc(OCC34CCCN3CCC4)nc3c(F)c(-c4nc(N)cc5cccc(F)c45)ncc23)C1 [Example 75]	pIC50	6.30 to 7.00
Cc1nsc(/C=C/C(=O)N2CC[C@@H](N(C)c3nc(OC[C@@]45CCCN4C[C@H](F)C5)nc4c3C[C@H](C)[C@@H](c3nc(N)cc(C)c3C(F)(F)F)C4)C2)n1 [Example 88]	pIC50	≤ 6.30
Cc1cc(N)nc(N2CCc3c(nc(OC[C@@]45CCCN4C[C@H](F)C5)nc3N(C)[C@@H]3CCN(C#N)C3)C2)c1C(F)(F)F [Example 203]	pIC50	≤ 6.30

Query compound follows.
Which pIC50 value is on record for Cc1cc(N)nc([C@H]2Cc3nc(OC[C@@]45CCCN4C[C@H](F)C5)nc(N(C)CC4CN(C(=O)/C=C/c5nc(C(C)(C)O)no5)C4)c3C[C@@H]2C)c1C(F)(F)F (single isomer, unassigned) [Example 155] ?
≤ 6.30
